- systemUnderTest: DS-Cav1 (RSV F-protein, pre-form, in-house) (respiratory syncytial virus (RSV), UniProt P03420 26-513)
- Sequence (P03420 26-524): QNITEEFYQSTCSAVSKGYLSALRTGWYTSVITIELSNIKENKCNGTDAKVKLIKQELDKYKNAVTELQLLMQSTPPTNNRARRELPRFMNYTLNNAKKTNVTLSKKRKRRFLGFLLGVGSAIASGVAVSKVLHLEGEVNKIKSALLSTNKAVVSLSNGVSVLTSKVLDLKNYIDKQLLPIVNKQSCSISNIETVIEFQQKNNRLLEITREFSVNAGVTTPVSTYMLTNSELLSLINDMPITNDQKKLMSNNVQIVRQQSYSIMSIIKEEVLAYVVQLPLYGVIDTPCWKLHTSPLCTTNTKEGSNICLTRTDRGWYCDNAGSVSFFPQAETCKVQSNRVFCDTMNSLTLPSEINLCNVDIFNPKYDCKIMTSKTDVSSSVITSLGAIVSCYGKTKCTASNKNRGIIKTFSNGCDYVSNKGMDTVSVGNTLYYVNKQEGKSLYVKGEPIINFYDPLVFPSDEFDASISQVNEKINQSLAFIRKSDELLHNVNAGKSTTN
- assayNotes: ELISA, coated DS-Cav1, IgG titrated
pKd: −log10 of the molar value.
observable: pKd

Below are worked cases with known answers.
4E3 (antibody, V domains shown, IgG made in Expi293) VH: EVQLVESGGGLVKPGGSLRLSCAGSGFTFSSYTMHWVRQAPGKGLEWVSSITGGSSYVDYSASVKGRFTISRDNAQSSLYLQMNSLRAEDTAVYYCARDDYGSGSYSNWFDPWGQGTLVTVSS VL: QSVLTQPPSVSGAPGQRVTISCTGSSSNIGAGYDVHWYQQVPGTAPKLLIFGSTNRPSGVPDRFSGSKSGASASLAITGLQADDEADYYCQSYDRSLSHVFGTGTKVTVLG	~9.48
12E9 (antibody, V domains shown, IgG made in Expi293; also called #11; 11) VH: EVQLVESGGGLVKPGGSLRLSCAASGFTFTSYRMHWVRQAPGKGLEWVSSITGGGNYIEYADSVKGRFTISRDNAQSSLYLQMNSLRAEDTAVYYCARDDYGSGSYSNWFDPWGQGTLVTVSS VL: QTVVTQEPSVSGAPGQRVTISCTGSSSNIGAGYDVHWYQQLPGRAPKLLIFANTNRPSGVPDRFSGSKSGASASLAITGLQADDEADYYCQSYDRSLSHVFGTGTKVTVLG	~9.24
12A1 (antibody, V domains shown, IgG made in Expi293; also called #8) VH: EVQLVESGGGLIQPGGSLRLSCAGSGFTFSSYTMHWVRQAPGKGLEWVSSITGGSSYVDYSASVKGRFTISRDNAQSSLYLQMNSLRAEDTAVYYCARDDYGSGSYSNWFDPWGQGTLVTVSS VL: QSVLTQPPSVSGAPGQRVTISCTGSSSDIGAGYDVHWYQQLPGTAPKLLIFANTNRPSGVPDRFSGSKSGASASLAITGLQADDEADYYCQSYDRSLSHVFGTGTKVTVLG	~8.78
4G2 (antibody, V domains shown, IgG made in Expi293; also called #28; 28) VH: EVQLVESGGGLVKPGGSLRLSCAASGFTFTSYRMHWVRQAPGKGLEWVSSITGGGNYIEYADSVKGRFTISRDNAKNSLDLQMNSLRAEDTAIYYCARDMYGLGSYYSPNYFDPWGQGTLVTVSS VL: QSVLTQPPSVSGAPGQRVTISCTGSSSNIGAGYDVHWYQQLPGAAPRLLMFGNSNRPSGVPDRFSGSKSGTSASLAITGLQAEDEADYYCQSYDSSLSHVFGTGTKVTVLG	~8.98
2H1 (antibody, V domains shown, IgG made in Expi293; also called #9) VH: QVTLKESGGGVVQSGRSLRLSCAASGFTFSSYTMHWVRQAPGKGLEWVSSITGGSSYVDYSASVKGRFTISRDNAQSSLYLQMNSLRAEDTAVYYCARDDYGSGSYSNWFDPWGQGTLVTVSS VL: QSVLTQPPSVSGAPGQRVTISCTGSSSNIGAGYDVHWYQQLPGRAPKLLIYANTNRPSGVADRFSGSKSGASASLAITGLQADDEADYYCQSYDRSLSHVFGTGTKVTVLG	~8.71
5E9 (antibody, V domains shown, IgG made in Expi293; also called #60; 60) VH: QVQLVQSGPEVKKPGSSVKVSCKASGYTFGHYGISWVRQAPGQGLEWMAWISAYNGNTDSIQKVQGRVTMTTDTSTNTAYLELRSLRSDDTAVYYCVRDVPATGGAATADYWGQGTTVTVSS VL: DVVMTQSPLSLPVTLGQPASISCRSSQSLVFSDGNTYLSWFQQRPGQSPRRLIYKVSNRDSGVPDRFSASGSGTDFTLKISRVEADDVGVYYCMQVTHWPRTFGQGTRLEIKR	~8.88

Param item = #18m (antibody, V domains shown, Germline-edited (m) form of 2H9, heavy and light chain edited; IgG; also called 2H9 (modified)) VH: EVQLVESGGGLVKPGGSLRLSCAASGFTFTSYRMHWVRQAPGKGLEWVSSITGGGNYIEYADSVKGRFTISRDNAKNSLDLQMNSLRAEDTAIYYCARDMYGLGSYYSPNYFDPWGQGTLVTVSS VL: QSVLTQPLSVSGAPGQRVTISCTGSSSNIGAGYDVHWYQQVPGTAPKLLIFGSTNRPSGVPDRFSGSKSGASASLAITGLQADDEADYYCQSYDRSLSHVFGTGTKVTVL ; retrieve measured pKd. ~8.74

Param item = 2E9 (antibody, V domains shown, IgG made in Expi293; also called #14; 14) VH: QVTLKESGGGLVKPGGSLRLSCAGSGFTFSSYTMHWVRQAPGKGLEWVSSITGGSSYVDYSASVKGRFTISRDNAKNSLFLQMNSLRAEDTAVYYCARDDYGSGSYSNWFDPWGQGTLVTVSS VL: QSVLTQPPSVSGAPGQRVTISCTGSSSNIGAGYDVHWYQQLPGRAPKLLIFANTNRPSGVPDRFSGSKSGASASLAITGLQADDEADYYCQSYDRSLSHVFGTGTKVTVLG ; retrieve measured pKd. ~9.32

Param item = 4H1 (antibody, V domains shown, IgG made in Expi293; also called #3) VH: EVQLVESGGGLVKPGGSLRLSCAGSGFTFSSYTMHWVRQAPGKGLEWVSSITGGSSYVDYSASVKGRFTISRDNAQSSLYLQMNSLRAEDTAVYYCARDDYGSGSYSNWFDPWGQGTLVTVSS VL: QSVLTQPPSVSGAPGQRVTISCTGSSSNIGAGYDVHWYQQVPGTAPKLLIFGSTNRPSGVPDRFSGSKSGASASLAITGLQADDEADYYCQPYDRSLSHVFGTGTKVTVLR ; retrieve measured pKd. ~8.76

Param item = 9H4 (antibody, V domains shown, IgG made in Expi293; also called #52; 52) VH: QVQLVQSGGGLVQPGGSLRISCTASGFTFRNYEMNWVRQAPGKGLEWVAYISSSGSSRYYADSVKGRFTISRDNAKNSLFLQMNSLRAEDMAVYYCARTDDGSSWFVSTSSFYGMDVWGQGTTVTVSS VL: EIVLTQSPGIQSLSPGETATLSCRASESISSSYFAWYQQKPGQAPRLLIYGASSRASGIPDRFSGSGSGTDFTLTISRLEPEDFAVYYCQQYGSSPPITFGQGTRLEIKR ; retrieve measured pKd. ~9.05
